- assay info: Inhibition of Human respiratory syncytial virus A2 Fusion protein expressed in Hep2 cells assessed as reduction in virus-induced cytopathic effect after 4 days by XTT assay
measured parameter: EC50

# structure, EC50
measured = [
    ("CC[C@H]1c2cc3nc(N4CC[C@H](N)C4)cc(n3n2)N(C)CCCCCCOc2ccc(C)cc2C(=O)N1C", "54 nM"),
    ("CC[C@H]1c2cc3nc(N4CC[C@H](N)C4)cc(n3n2)NCCCCOc2ccc(C)cc2C(=O)N1C", "61 nM"),
    ("CC[C@@H](c1cc2nc(N3CC[C@H](N)C3)c(C)cn2n1)N(C)C(=O)c1cc(C)ccc1OC", "3.8 nM"),
]

Looking for the measured EC50 of `Cc1ccc2c(c1)C(=O)N1CCCC[C@H]1c1cc3nc(N4CC[C@H](N)C4)cc(n3n1)N(C)CCCCO2` , can you help? 2 nM

Looking for the measured EC50 of `CC[C@H]1c2cc3nc(N4CC[C@H](N)C4)c(C)c(n3n2)N(C)CCCCOc2ccc(C)cc2C(=O)N1C` , can you help? 8.1 nM
